Overview of reported pIC50 across a group of compounds:
Tested system: HCV NS5B RdRp genotype 1b (Hepatitis C virus genotype 1b)
Construct: The protein was expressed with an 18 amino acid C-terminal truncation to enhance the solubility; made in house; host or cells: E. coli BL21(DE3), pET21a vector
Procedure details: Standard HCV NS5B RdRp enzyme assay
Assay type: biochemical
Run conditions: Table 1b; HCV NS5B RdRp genotype 1b; read-out: IC50
pIC50: −log10 of the molar value.

These solved cases illustrate the format of a correct answer.
{"Item smiles": "CNC(=O)c1c(-c2ccc(F)cc2)oc2ccc(-c3cc(C(=O)NC4(c5nnc(-c6cccnc6)[nH]5)CC4)ccc3C)cc12", "Result": "> 6.60"}
{"Item smiles": "CNC(=O)c1c(-c2ccc(F)cc2)oc2ccc(-c3c(C)ccc(C(=O)NC4(c5ccccn5)CC4)c3F)cc12", "Result": "> 7.70"}
{"Item smiles": "CNC(=O)c1c(-c2ccc(F)cc2)oc2ccc(-c3cc(NC(=O)C4(c5ccccc5)CC4)ccc3C)cc12", "Result": "5.00 to 6.00"}
{"Item smiles": "CNC(=O)c1c(-c2ccc(F)cc2)oc2ccc(-c3cc(C(=O)NCC(C)C)ccc3OCc3ccnc(Br)c3)cc12", "Result": "6.00 to 6.60"}
{"Item smiles": "CNC(=O)c1c(-c2ccc(F)cc2)oc2ccc(-c3cc(C(=O)NCC(C)C)ccc3OCc3c[nH]c(C)n3)cc12", "Result": "> 6.60"}

Assay HCV NS5B RdRp genotype 1b (Hepatitis C virus genotype 1b), sample "CNC(=O)c1c(-c2ccc(F)cc2)oc2ccc(-c3ccc(-c4cncc(N)c4)c(C(=O)NCC(C)C)c3)cc12" , pIC50 read: > 6.60

The measured pIC50 that "CNC(=O)c1c(-c2ccccc2)oc2ccc(-c3cc(C(=O)NC4(c5nc(-c6ccccn6)no5)CC4)ccc3C)cc12" showed for HCV NS5B RdRp genotype 1b (Hepatitis C virus genotype 1b) is > 6.60

Lab entry: HCV NS5B RdRp genotype 1b (Hepatitis C virus genotype 1b) assay, compound "CNC(=O)c1c(-c2ccc(F)cc2)oc2ccc(-c3cc(C(=O)NC4(c5nnc(C)[nH]5)CC4)ccc3C)cc12" , pIC50 = > 6.60

====

Tested system: HCV NS5B RdRp genotype 1b (Hepatitis C virus genotype 1b, UniProt Q9WMX2)
Construct: The protein was expressed with an 18 amino acid C-terminal truncation to enhance the solubility; made in house; host or cells: E. coli BL21(DE3), pET21a vector
Sequence (Q9WMX2 2420-2992): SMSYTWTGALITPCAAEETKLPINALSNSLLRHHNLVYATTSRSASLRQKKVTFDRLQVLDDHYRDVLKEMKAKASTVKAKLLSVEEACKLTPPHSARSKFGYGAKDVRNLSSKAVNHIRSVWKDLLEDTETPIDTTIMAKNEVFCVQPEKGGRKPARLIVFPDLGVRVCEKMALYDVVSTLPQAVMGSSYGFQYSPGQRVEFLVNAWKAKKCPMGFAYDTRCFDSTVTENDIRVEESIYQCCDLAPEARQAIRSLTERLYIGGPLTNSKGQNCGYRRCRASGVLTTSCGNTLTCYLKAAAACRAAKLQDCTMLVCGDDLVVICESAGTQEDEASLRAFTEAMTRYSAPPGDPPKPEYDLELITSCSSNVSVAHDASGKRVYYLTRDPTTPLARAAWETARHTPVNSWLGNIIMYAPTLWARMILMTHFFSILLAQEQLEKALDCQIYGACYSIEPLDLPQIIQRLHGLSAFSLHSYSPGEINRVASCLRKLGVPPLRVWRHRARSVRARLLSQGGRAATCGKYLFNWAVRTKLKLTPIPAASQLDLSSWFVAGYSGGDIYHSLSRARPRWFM
Procedure details: Standard HCV NS5B RdRp enzyme assay
Assay type: biochemical
Run conditions: Table 1a; HCV NS5B RdRp genotype 1b; read-out: IC50
Metric: IC50

Reference set, count: 3
{"Compound": "CNC(=O)c1c(-c2ccc(F)cc2)oc2ccc(-c3cccc(C(=O)Nc4ccccc4-c4ccccc4)c3)cc12", "Result": "1 to 10 µM"}
{"Compound": "CNC(=O)c1ccc(-c2ccc3oc(-c4ccc(F)cc4)c(C(=O)NC)c3c2)cc1", "Result": "> 10 µM"}
{"Compound": "CNC(=O)c1c(-c2ccc(F)cc2)oc2ccc(-c3cccc(C(=O)NC4(c5ccccc5)CC4)c3)cc12 [drawing 67]", "Result": "< 0.25 µM"}

Note: attention shifts to another entry.
For this compound ( "CNC(=O)c1c(-c2ccc(F)cc2)oc2ccc(-c3cccc(C(=O)Nc4n[nH]cc4C(N)=O)c3)cc12" ), measured IC50 is 1 to 10 µM

Data origin: patent US8309558B2
